Tested on: T1, human Siglec-3 (CD33) on cells (human, UniProt P20138 18-364)
T1 construct: whole, on cells; also called human endogenous or exogenous Siglec-3
T1 sequence (P20138 18-364): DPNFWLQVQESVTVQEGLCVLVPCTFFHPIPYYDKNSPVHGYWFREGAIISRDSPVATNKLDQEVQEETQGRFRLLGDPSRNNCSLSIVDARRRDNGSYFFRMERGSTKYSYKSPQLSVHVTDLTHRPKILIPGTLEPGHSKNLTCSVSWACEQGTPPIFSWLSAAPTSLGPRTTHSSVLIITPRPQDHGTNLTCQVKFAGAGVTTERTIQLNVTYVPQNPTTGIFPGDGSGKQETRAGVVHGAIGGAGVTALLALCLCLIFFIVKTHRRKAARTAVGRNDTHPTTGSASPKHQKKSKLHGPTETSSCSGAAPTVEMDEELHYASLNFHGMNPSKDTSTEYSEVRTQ
Assay protocol: flow cytometry on moDCs (data not shown)

{"Binder": "anti-Siglec-3 antibody S3PL3-46 reformatted into human IgG1 or IgG4 (antibody, V domains shown, also called 1S3PL3-46; 4S3PL3-46) VH: VQLVESGGGLVQPGGSLRLSCAASGFTIDDGFIHWVRQAPGKGLEWVAGIGPYGGYTYYADSVKGRFTISADTSKNTAYLQMNSLRAEDTAVYYCARFNDHWDLWMDYWGQGTLVTVSS VL: DIQMTQSPSSLSASVGDRVTITCRASQDVYGYVAWYQQKPGKAPKLLISYTPGLYSGVPSRFSGSGSGTDFTLTISSLQPEDFATYYCQQYSRMPITFGQGTKVEIKR", "binding result": "binds"}
{"Binder": "anti-Siglec-3 antibody S3H2-12 reformatted into human IgG1 or IgG4 (antibody, V domains shown, also called 1S3H2-12; 4S3H2-12) VH: VQLVESGGGLVQPGGSLRLSCAASGFTIDDGFIHWVRQAPGKGLEWVATISPNTGHTNYADSVKGRFTISADTSKNTAYLQMNSLRAEDTAVYYCARFNDHWDLWMDYWGQGTLVTVSS VL: DIQMTQSPSSLSASVGDRVTITCRASQDVYGYVAWYQQKPGKAPKLLISYTPGLYSGVPSRFSGSGSGTDFTLTISSLQPEDFATYYCQQYYDFPITFGQGTKVEIKR", "binding result": "binds"}
